Please consider the recorded pKi for Protein kinase C alpha type (Homo sapiens) in what follows.
Recall that pKi is obtained by taking minus log10 of the concentration measured in molar.

Entry COC(=O)COc1ccc(C#Cc2ccc(C#Cc3ccc(C(=O)OCC4(CO)CC(=C(C)C)C(=O)O4)cc3)cc2)cc1 (centres undefined) has what pKi? 7.80

Could you do the same for COc1ccc(C#Cc2ccc(C#Cc3ccc(C(=O)OCC4(CO)CC(=C(C)C)C(=O)O4)cc3)cc2)cc1 (centres undefined) , please? 8.23

Could you do the same for CCCCCCCCCC(=O)OCC1(CO)CC(=C(C)C)C(=O)O1 (centres undefined) , please? 7.80

Could you do the same for C#Cc1ccc(C#Cc2ccc(C(=O)OCC3(CO)CC(=C(C)C)C(=O)O3)cc2)cc1 (centres undefined) , please? 8.28

---

For each entry below, report its EC50 value.
- PROTOCOL SUMMARY: Stimulation of ERK phosphorylation in LNCaP cells after 30 min
- Type: functional, cell-based
- EXPERIMENTAL SETUP: Homo sapiens, 0.5 h

Entry C#Cc1ccc(C#Cc2ccc(C(=O)OCC3(CO)CC(=C(C)C)C(=O)O3)cc2)cc1 (configuration not stated) has what EC50? 400 nM

Could you do the same for CCCCCCCCCC(=O)OCC1(CO)CC(=C(C)C)C(=O)O1 (configuration not stated) , please? 3000 nM
